Task for the reader: assign each of the following variants its reported self-cleavage.
B1: HDV Ribozyme (parent)
chain: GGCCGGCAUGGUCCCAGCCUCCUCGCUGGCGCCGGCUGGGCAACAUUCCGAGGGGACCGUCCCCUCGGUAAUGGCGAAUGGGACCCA

variants of: B1; assay: self-cleavage, relative activity (ratio to wild type); higher = more cleavage; co-transcriptional

// self-cleavage lookup, variant = GGCCGGCAUCGUCCCAGCCUCCUCGCUGGCGCCGGCUGGGCAACAUACCGAGGGGACCGUCCCCUCGGUAAUGGCGAAUGGGACCCA [G10C U47A] , result: 0.853

// self-cleavage lookup, variant = GGCCGGCAUGGUCCCAGCCUCCUCGCUGGCGCCGGCUGGGCAACAUUCCGAGGGGACCGUCCCCUCCGUAAUGGCGAAUGGGACCAA [G67C C86A] , result: 0.972

// self-cleavage lookup, variant = GGCCGGCAUGGUCCCAGCCUCCUCGCUGGCGCCGCCUGGGCAACAUUCCCAGGGGACCGUCCCCUCGGUAAUGGCGAAUGGGACCCA [G35C G50C] , result: 0.0923

// self-cleavage lookup, variant = GGCCGGCAUGGUCCCAGCAUCCUCGCUGGCGCCGGCUGGGCAACAUUCCGAGGGGACCGUCCCCUCGGUAAUGGCGAAUGGGACCCU [C19A A87U] , result: 0.223

// self-cleavage lookup, variant = GCGCGGCAUGGUCCCAGCCUCCUCGCUGGCGCCGGCUGGGCAACAUUCCGAGGGGACCGUCCCCUCGGUAAUGGCGAAUGGGACCCA [G2C C3G] , result: 0

// self-cleavage lookup, variant = GGCCGGCAUGGUCCCAGCCUCCUCGCUGGCGCCGGCUGGGCAACAUUCCGAGGGGACCGUCCCCUCUGUAAUGGCGAAUGGGGCCCA [G67U A83G] , result: 0.412

// self-cleavage lookup, variant = GGCCGGCAUGGUCCCAGCCUCCUCGCUGGCGCCGGCUGGGCAACAAUCCGAGGGGACCGUCCCCUCGGUAAUGGUGAAUGGGACCCA [U46A C75U] , result: 0.0665

// self-cleavage lookup, variant = GGCCGGCAUGUUCCUAGCCUCCUCGCUGGCGCCGGCUGGGCAACAUUCCGAGGGGACCGUCCCCUCGGUAAUGGCGAAUGGGACCCA [G11U C15U] , result: 0.258

// self-cleavage lookup, variant = GGCCGGCAUGGUCCCAGACUCCUCGCUGGCGCCGGCUGGGCAACAUUCCGAGGGGACCGUCCCCUCGGUAAUGGCGAAUGGGGCCCA [C18A A83G] , result: 0.0443

// self-cleavage lookup, variant = GGCCGGCAUGGUCCCAGCCUCCUCGCUGGCGCCGGCUGGGCAACACUCCGAGGGGACCGUCCCCUCAGUAAUGGCGAAUGGGACCCA [U46C G67A] , result: 0.671

// self-cleavage lookup, variant = GGCCGGCAUGGUCCCAGCCUCCUCGCUGGCGCCGGCUGGGCAACAUUCCGAGGGGACCGUAGCCUCGGUAAUGGCGAAUGGGACCCA [C61A C62G] , result: 0.892

// self-cleavage lookup, variant = GGCCUGCAUGGUCCCAGCCUCCUCGCUGGCGCCGGCUGCGCAACAUUCCGAGGGGACCGUCCCCUCGGUAAUGGCGAAUGGGACCCA [G5U G39C] , result: 0.26

// self-cleavage lookup, variant = GGCCGGCAUGGUCCCAGCCUCCUCGCUGGCGCCGGCUGGGCAACAUUCCGAGGGGACCGUCCCCUCGGUGAUGGCGAACGGGACCCA [A70G U79C] , result: 0.365

// self-cleavage lookup, variant = GGCCGGCAUGGUCCCAGCCUCCUCGCUGGCGCCGGCUGGGCAACAUUCCGAGGGGACCGUCCCGUCGGUAAUCGCGAAUGGGACCCA [C64G G73C] , result: 0.324

// self-cleavage lookup, variant = GGCCGGCAUGGUCCCAGCCUCCUCGCUUGCGCCGGCUGGGCAACAUUCCGAGGGGACCGUCGCCUCGGUAAUGGCGAAUGGGACCCA [G28U C62G] , result: 0.0415

// self-cleavage lookup, variant = GGCCGGCAUGGUGCGAGCCUCCUCGCUGGCGCCGGCUGGGCAACAUUCCGAGGGGACCGUCCCCUCGGUAAUGGCGAAUGGGACCCA [C13G C15G] , result: 0.122

// self-cleavage lookup, variant = GGCCGGCAUGGUCCCAGCCUCCUCGCUGACGCCGGCUGGGCAACAUUCCGAGGGGACCGUCCCCUCGGUAAUGGCGAAUGGGACGCA [G29A C85G] , result: 0.119

// self-cleavage lookup, variant = GGCCGGCAUGGUCCCAGCCUCCUCGCUAGCGCCGGCUGGGCAAGAUUCCGAGGGGACCGUCCCCUCGGUAAUGGCGAAUGGGACCCA [G28A C44G] , result: 0

// self-cleavage lookup, variant = GGCCGGCAUGGUCCCAGCCUCCUCGCUGGCGCCGGCUGGGCAACAUUCCGAGUGGACCGUCCCCUCGGUAAUGGCGAUUGGGACCCA [G53U A78U] , result: 0.251

// self-cleavage lookup, variant = GGCCGGCAUGGUCCCAGCCUCCUCGCUGGCGCUGGCUGGUCAACAUUCCGAGGGGACCGUCCCCUCGGUAAUGGCGAAUGGGACCCA [C33U G40U] , result: 0.78

// self-cleavage lookup, variant = GGGCGGCAUGGUCCCAGCCUCCUCGCUGGCGCCGGCUGGGCAAAAUUCCGAGGGGACCGUCCCCUCGGUAAUGGCGAAUGGGACCCA [C3G C44A] , result: 0.312

// self-cleavage lookup, variant = GGCCGGCAUGGCCCCAGCCUCCUCGCUGGCGCCGGCUGGGCAACAUUCCGAGGGGACCGUCCCCUCGGUAAUGGCGAAUGGGACCAA [U12C C86A] , result: 0.864

// self-cleavage lookup, variant = GGCCGGCAUGGUCCCAGCCUACUCGCUGGCGCCGGCUGGGCAACAUUCCGAGGGGACCGUCCCCUCGGUAAUGGCGAAUGGGACCCG [C21A A87G] , result: 0.0496

// self-cleavage lookup, variant = GGCCGGCAUGGUCCCAGCCUCCUAGCUGGCGCCGGCUGGGCAACAUUCCGAGCGGACCGUCCCCUCGGUAAUGGCGAAUGGGACCCA [C24A G53C] , result: 0.785

// self-cleavage lookup, variant = GGCCGGCAUGGUCCCAGCCUCCUCGCUGGCUCCGGCUGGGCAACAUUCCGAGGGGACCCUCCCCUCGGUAAUGGCGAAUGGGACCCA [G31U G59C] , result: 0.57

// self-cleavage lookup, variant = GGCCGGCAUGGGCCCAGCCUCCUCGCUGGCGCCGGCUGGGCAACACUCCGAGGGGACCGUCCCCUCGGUAAUGGCGAAUGGGACCCA [U12G U46C] , result: 1.02

// self-cleavage lookup, variant = GGCCGGCAUGAUCCCAGCCUCCUCGCUGGCGCCGGCUGGGCAACAUUCCGAGGGGACCGUCCCCUCGGUAAUGGCGAAUGGCACCCA [G11A G82C] , result: 0.0739

// self-cleavage lookup, variant = GGCCGGCAUGGUCCCAGCCUCCUCGCUGGCGCCGGCUAGGCAACAUUCCGAGGGGACCGUCCCCUCGGUAAUGGCGAAUGGGACCGA [G38A C86G] , result: 0.107

// self-cleavage lookup, variant = GGCCGGCAUGGUCCCAGCCUCCUCGCUGGCGCCGGCUGGGCAACAUUCCGAGGGGACCGUCCCCUCGGUUCUGGCGAAUGGGACCCA [A70U A71C] , result: 0.802

// self-cleavage lookup, variant = GGCCGGCAUGGUCCCAGCCUCCUCGCUGGCGCCGGCUGGGCAACAUUCCGAGGGGACCGUCCCCUCGGUAAUGUCUAAUGGGACCCA [G74U G76U] , result: 0.794

// self-cleavage lookup, variant = GGCCGGCAUGGUCCCAGCCUCCUCGCUGGCGCCGGCUGGGCAACAUUCCGAGGGGACCGUCCCCUCGGUAAAGGCGAAUGGUACCCA [U72A G82U] , result: 0.225

// self-cleavage lookup, variant = GGCCGGCAUGGUCCCAGCCUCCUCGCUGGCGCCGGCUGGGCAAUAUUCCGAGGGGACCGUCCCCUCCGUAAUGGCGAAUGGGACCCA [C44U G67C] , result: 0.755

// self-cleavage lookup, variant = GCCCGGCAGGGUCCCAGCCUCCUCGCUGGCGCCGGCUGGGCAACAUUCCGAGGGGACCGUCCCCUCGGUAAUGGCGAAUGGGACCCA [G2C U9G] , result: 0.0723

// self-cleavage lookup, variant = GGGCGGCAUGGUCCCAGCCUCCUCGCUGGCGCCGGCUGGGCAACAUUCCGAGGGGACCGUCCCCUCGGUAGUGGCGAAUGGGACCCA [C3G A71G] , result: 0.631

// self-cleavage lookup, variant = GGCCGGCAUGGUCCCAGGCUCCUCGCUGGCGCCGGCUGGGCAACAUUCCGAGGGGACCGUCCCCUCGGUAAUGGCCAAUGGGACCCA [C18G G76C] , result: 0.147

// self-cleavage lookup, variant = GGCCGGCAUGGUCCCAGCCUCCUCGCUGGCGCCAGCUGGGCAACAUUCCGAGGGGACCGUCCCCGCGGUAAUGGCGAAUGGGACCCA [G34A U65G] , result: 0.178

// self-cleavage lookup, variant = GGCCGGCAUGGUACCAGCCUCCUCGCUGGCGCCGGCUGGGCAACAUUCCGAGGGGACCGUCCCCUCGGUAAUGACGAAUGGGACCCA [C13A G74A] , result: 0.101

// self-cleavage lookup, variant = GGCCUGCAUGGUCCCAGCCUCCUUGCUGGCGCCGGCUGGGCAACAUUCCGAGGGGACCGUCCCCUCGGUAAUGGCGAAUGGGACCCA [G5U C24U] , result: 0.115

// self-cleavage lookup, variant = GGCCGGCAUGGUCCCAGCCUCCUCGCUGGGGCCGGCUGGGCAACAUUACGAGGGGACCGUCCCCUCGGUAAUGGCGAAUGGGACCCA [C30G C48A] , result: 0.0369

// self-cleavage lookup, variant = GGCCGGCAUGGUCCGAGCCUCCUCGCUGGCGCCGGCUGGGCAAGAUUCCGAGGGGACCGUCCCCUCGGUAAUGGCGAAUGGGACCCA [C15G C44G] , result: 0.434

// self-cleavage lookup, variant = GGCCGGCAUGGUCCCAGCCUCCUCGCUGGCGCCGGCUGGGCAACAUACCGAGGGGACCGUCCCCUCGGUAAUGGCGAAUGGGACCUA [U47A C86U] , result: 0.88

// self-cleavage lookup, variant = GGCCGGCAUGGUCCCAGCCUCCUCGCUGGCGCCGGCUGGGCAACAUUCCGAGGGAACCGUCCCCUCGGUAAUGUCGAAUGGGACCCA [G55A G74U] , result: 0.541

// self-cleavage lookup, variant = GGCCGGCAUGGUCCCAGCCUCCUCGCUGGCGCCGGCUGGGCAACCUUCCGAGGGGACCGUCCCCUCGGUAAUGGCGAAUGGGCCCCA [A45C A83C] , result: 0.0615

// self-cleavage lookup, variant = GGCCGGCAUGGUCCCAGCCUCCUCGCUGGCGUCGGCUGGGCAACAUUCCGAGGGGACCGUCCCCUCGGUAAUGCCGAAUGGGACCCA [C32U G74C] , result: 0.224

// self-cleavage lookup, variant = GGCCGGCAUGGACCCAGCCUCCUCGCUGGCGCCGGCUGGGCAACAUUCCGAGGGGACCGUCUCCUCGGUAAUGGCGAAUGGGACCCA [U12A C62U] , result: 0.252

// self-cleavage lookup, variant = GGCCGGCAUGGUCCCAGCCUCCUCGCUGGCUCCGGCUGGGCAACAUUCCGAGGGGACCGUCCCCUCUGUAAUGGCGAAUGGGACCCA [G31U G67U] , result: 0.297

Entry source: the RNAGym collection of RNA variant scans (doi:10.7554/elife.80360)
